STUDY_SYSTEM: human PD-1 / PD-L1-Ig binding on Jurkat cell line over-expressing human PD-1 (Jurkat-PD-1) (Homo sapiens)
Construct: expressed in transfected cells; host or cells: Jurkat
Sequence (Q15116 25-288): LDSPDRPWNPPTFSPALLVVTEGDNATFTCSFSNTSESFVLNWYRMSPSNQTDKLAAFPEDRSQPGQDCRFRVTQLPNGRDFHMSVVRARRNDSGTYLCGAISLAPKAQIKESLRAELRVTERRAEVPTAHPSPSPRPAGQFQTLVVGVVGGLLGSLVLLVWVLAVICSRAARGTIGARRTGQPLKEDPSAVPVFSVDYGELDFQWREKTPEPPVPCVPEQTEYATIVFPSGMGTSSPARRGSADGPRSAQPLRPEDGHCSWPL
METHOD_NOTES: Jurkat-PD-1 Cell Binding High-Content Screening Assay (CBA)
Assay type: cell-based
APPLIED_CONDITIONS: Jurkat-PD-1 cells, PE-labeled PD-L1-Ig 20 nM final; read-out: Jurkat HPD1_PDL1 IC50
Where a SMILES comes first, the peptide text is derived from it. Bridges are numbered along the chain shown (N, C = ends). [ ]: non-standard residue; d: D form. Bip = N[C@@H](Cc1ccc(-c2ccccc2)cc1)C(=O)O; Nle = CCCC[C@H](N)C(=O)O; Orn = NCCC[C@H](N)C(=O)O; Dab = NCC[C@H](N)C(=O)O; Dap = NC[C@H](N)C(=O)O
MEASURED_ATTRIBUTE: IC50 (nM)

# COMPOUND, NUMERIC_RESULT
rows = [
    ("CCCC[C@@H]1NC(=O)[C@H](CCN)NC(=O)[C@@H](CC(C)C)NC(=O)[C@H](CCCN)NC(=O)[C@H]([C@@H](C)CC)NC(=O)[C@H](Cc2ccc(-c3ccccc3)cc2)NC(=O)[C@H](C(C)C)NC(=O)[C@H](Cc2c[nH]c3ccccc23)NC(=O)[C@H](CC(=O)O)NC(=O)[C@H](Cc2ccc(O)cc2)NC(=O)[C@H](CN)NC(=O)CSC[C@@H](C(=O)N[C@@H](C)C(N)=O)NC(=O)[C@H]([C@@H](C)O)NC(=O)[C@H](C(C)C)NC1=O [Compound 1160] ({CH2CO}-[Dap]YDWV[Bip]I[Orn][dL][Dab][Nle]VTCA-NH2; thioether N-14)", 31.3),
]

src = patent US20250163104A1
